Target: T1, cynoNectin4-mFc (cyno, UniProt A0A2K5WES1 32-349)
T1 construct: Immobilized on the SPR chip; also called cyanoNectin4; not shown: mFc (mouse Fc)
T1 sequence: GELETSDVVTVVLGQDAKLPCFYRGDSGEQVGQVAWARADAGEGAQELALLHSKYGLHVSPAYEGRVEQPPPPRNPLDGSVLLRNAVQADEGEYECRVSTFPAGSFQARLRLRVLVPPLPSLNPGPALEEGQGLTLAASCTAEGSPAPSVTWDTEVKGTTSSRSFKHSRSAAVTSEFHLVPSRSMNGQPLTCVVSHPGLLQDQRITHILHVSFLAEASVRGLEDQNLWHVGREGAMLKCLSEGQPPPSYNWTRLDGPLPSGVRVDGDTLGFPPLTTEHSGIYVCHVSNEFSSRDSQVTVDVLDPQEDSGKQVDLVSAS
Test: SPR, cynoNectin4-mFc immobilized, pH 6.0
Recorded Endpoint: kon (M⁻¹ s⁻¹)
Provide the reading as a plain figure in M⁻¹ s⁻¹.

Examples with their reported kon follow.
| Binder | kon [M⁻¹ s⁻¹] |
| --- | --- |
| BAP-143-06-24-16 (antibody, V domains shown, Used as a conjugate with a linker payload (CAB ADC)) VH: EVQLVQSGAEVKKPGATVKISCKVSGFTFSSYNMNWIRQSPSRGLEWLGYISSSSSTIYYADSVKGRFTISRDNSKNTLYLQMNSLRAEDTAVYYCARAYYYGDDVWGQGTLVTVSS VL: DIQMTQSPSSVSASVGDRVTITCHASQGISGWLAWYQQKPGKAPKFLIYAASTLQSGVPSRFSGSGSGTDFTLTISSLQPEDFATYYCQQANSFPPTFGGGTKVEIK | 2.8e+06 |
| BAP-143-06-33-16 (antibody, V domains shown, Used as a conjugate with a linker payload (CAB ADC)) VH: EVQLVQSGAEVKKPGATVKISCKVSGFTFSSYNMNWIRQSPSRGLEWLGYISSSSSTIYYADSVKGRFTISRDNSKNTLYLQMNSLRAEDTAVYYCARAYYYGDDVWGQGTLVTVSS VL: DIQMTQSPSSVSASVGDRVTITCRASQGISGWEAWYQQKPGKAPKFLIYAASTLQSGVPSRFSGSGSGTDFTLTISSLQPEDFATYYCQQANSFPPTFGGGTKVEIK | 1.46e+06 |
| BAP-143-07-03-12 (antibody, V domains shown, Used as a conjugate with a linker payload (CAB ADC)) VH: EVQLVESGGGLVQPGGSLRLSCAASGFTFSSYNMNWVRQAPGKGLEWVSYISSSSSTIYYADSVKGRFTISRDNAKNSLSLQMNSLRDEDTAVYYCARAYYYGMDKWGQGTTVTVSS VL: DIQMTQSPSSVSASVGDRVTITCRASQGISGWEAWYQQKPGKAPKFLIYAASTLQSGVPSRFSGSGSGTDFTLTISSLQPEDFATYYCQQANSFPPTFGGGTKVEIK | 983000 |

Q: Suppose we examine the binder BAP-143-00-01 (antibody, V domains shown, Used as a conjugate with a linker payload (CAB ADC)) VH: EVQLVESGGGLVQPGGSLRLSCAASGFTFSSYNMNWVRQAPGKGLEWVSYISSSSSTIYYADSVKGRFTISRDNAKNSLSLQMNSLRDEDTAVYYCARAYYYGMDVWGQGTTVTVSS VL: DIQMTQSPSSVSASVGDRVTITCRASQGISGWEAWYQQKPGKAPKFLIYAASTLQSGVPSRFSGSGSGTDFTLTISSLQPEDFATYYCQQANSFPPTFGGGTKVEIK ; what kon value has been reported?
Result: 769000
